Target: full-length beta-Catenin (Uniprot ID P35222) (Homo sapiens)
Construct: 10 nM full-length beta-Catenin (Uniprot ID P35222)
Sequence (P35222 1-781): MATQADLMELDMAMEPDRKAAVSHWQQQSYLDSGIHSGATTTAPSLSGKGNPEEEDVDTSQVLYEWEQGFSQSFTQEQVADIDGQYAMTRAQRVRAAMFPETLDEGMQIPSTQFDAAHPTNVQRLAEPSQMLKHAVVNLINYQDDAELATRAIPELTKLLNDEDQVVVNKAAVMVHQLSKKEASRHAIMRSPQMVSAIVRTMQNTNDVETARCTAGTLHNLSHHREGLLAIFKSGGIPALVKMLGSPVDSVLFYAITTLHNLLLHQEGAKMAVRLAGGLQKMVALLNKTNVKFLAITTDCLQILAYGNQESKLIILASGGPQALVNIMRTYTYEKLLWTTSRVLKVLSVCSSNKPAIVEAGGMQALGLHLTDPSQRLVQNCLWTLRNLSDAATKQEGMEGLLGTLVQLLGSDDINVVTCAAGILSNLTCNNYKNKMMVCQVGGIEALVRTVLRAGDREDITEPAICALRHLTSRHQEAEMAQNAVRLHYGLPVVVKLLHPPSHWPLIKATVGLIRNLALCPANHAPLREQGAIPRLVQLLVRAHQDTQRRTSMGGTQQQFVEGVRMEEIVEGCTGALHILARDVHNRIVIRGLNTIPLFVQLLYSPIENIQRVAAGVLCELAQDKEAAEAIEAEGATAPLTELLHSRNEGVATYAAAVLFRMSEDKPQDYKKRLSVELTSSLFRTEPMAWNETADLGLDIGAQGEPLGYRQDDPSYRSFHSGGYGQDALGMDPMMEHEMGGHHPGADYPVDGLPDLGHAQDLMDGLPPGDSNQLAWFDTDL
Assay: Fluorescence polarization IC50 (beta-catenin / 5FAM-TCF4 10-53 competition)
Type: binding
Details: fluorescence polarization; read-out: beta-Catenin FP IC50
Value Type: IC50 (nM)
One number for each entry, in nM.

Record excerpt, results attached:
- Compound: "CC(=O)N1CCC[C@]12CC=CCCCC1(CCCC=CCCCOC(=O)N3CC[C@@](C(=O)N[C@@H](Cc4ccccc4Cl)C(=O)N[C@@H](Cc4csc5ccccc45)C(=O)N[C@H](C(N)=O)C(C)C)(C3)NC(=O)[C@H](C)NC(=O)[C@H](Cc3ccccc3)NC(=O)[C@H](C)NC(=O)[C@H](C)NC(=O)[C@H](Cc3cccc(C(=O)O)c3)NC(=O)[C@H](CC(=O)O)NC1=O)NC(=O)[C@H](CC(C)(C)C)NC(=O)[C@H](CC(=O)O)NC2=O (some centres unmarked) [I-2024]"
  IC50, nM: 78
- Compound: "CC(=O)N1CCC[C@]12CC=CCCCC1(CCCC=CCCCCCC[C@@](C)(C(=O)N[C@@H](Cc3ccccc3)C(=O)N[C@@H](Cc3csc4ccccc34)C(=O)N[C@@H](CCC(N)=O)C(N)=O)NC(=O)[C@H](CC(N)=O)NC(=O)[C@H](Cc3ccsc3)NC(=O)[C@H](C)NC(=O)[C@H](C)NC(=O)[C@H](CCC(=O)O)NC(=O)[C@H](CC(=O)O)NC1=O)NC(=O)[C@H](C)NC(=O)[C@H](CC(=O)O)NC2=O (some centres unmarked) [I-449]"
  IC50, nM: 53
- Compound: "CC(=O)N1CCC[C@]12CC=CCCCC1(CCCC=CCCCOC(=O)N3CC[C@@](C(=O)N[C@@H](Cc4ccsc4)C(=O)N[C@@H](Cc4csc5ccccc45)C(=O)N[C@@H](CCC(N)=O)C(N)=O)(C3)NC(=O)[C@H](CC(N)=O)NC(=O)[C@H](Cc3ccccc3)NC(=O)[C@H](C)NC(=O)[C@H](C)NC(=O)[C@H]([C@@H](C)O)NC(=O)[C@H](CC(N)=O)NC1=O)NC(=O)[C@H](CC1CCCCC1)NC(=O)[C@H](CC(=O)O)NC2=O (some centres unmarked) [I-1885]"
  IC50, nM: 255
- Compound: "CC(=O)N1CCC[C@]12CC=CCCCC1(CCCC=CCCCOC(=O)N3CC[C@@](C(=O)N[C@@H](Cc4ccccc4C(F)(F)F)C(=O)N[C@@H](Cc4csc5ccccc45)C(=O)N[C@@H](C)C(N)=O)(C3)NC(=O)[C@H](CC(C)C)NC(=O)[C@H](Cc3ccccc3)NC(=O)[C@H](C)NC(=O)[C@H](CCC(N)=O)NC(=O)[C@H](Cn3cc(CC(C)(C)C(=O)O)nn3)NC(=O)[C@H](CC(=O)O)NC1=O)NC(=O)[C@H](CC(C)(C)C)NC(=O)[C@H](CC(=O)O)NC2=O (some centres unmarked) [I-2368]"
  IC50, nM: 5

Below: the item to evaluate.
Lab note: measured IC50 of COCCOCCC(=O)N1CCC[C@]12CC=CCCCC1(CCCC=CCCCCCC[C@@](C)(C(=O)N[C@@H](Cc3ccccc3Cl)C(=O)N[C@@H](Cc3csc4ccccc34)C(=O)N[C@@H](CCC(N)=O)C(N)=O)NC(=O)[C@H]([C@@H](C)O)NC(=O)[C@H](Cc3ccccc3)NC(=O)[C@H](C)NC(=O)[C@H](C)NC(=O)[C@H](CC(=O)O)NC(=O)[C@H](CC(=O)O)NC1=O)NC(=O)[C@H](CC(C)(C)C)NC(=O)[C@H](CC(=O)O)NC2=O (some centres unmarked) [I-1255] was 32
